System: KM12
procedure-details: NCI tumour cell line growth inhibition, 48 h
The source made the active and inactive calls. Cut-off read from the data, not from the text of the source: active = GI50 up to about 1.1 µM and inactive = higher.
result-type: GI50

>>> obs_value("CCN(CC)P(=O)(c1ccc2c(c1)OCCOCCOCCOCCO2)N(CC)CC")
"> 100 µM (inactive)"
>>> obs_value("C[C@H]1OC(=O)[C@@H]2N=NN(Cc3ccccc3)[C@H]12")
"> 100 µM (inactive)"
>>> obs_value("COC(=O)C1(C)CCc2c(ccc3ccccc23)C1=O (configuration not stated)")
"25.8 µM (inactive)"
>>> obs_value("CC12CP(=O)(O)CC1C2(Cl)Cl (configuration not stated)")
"> 100 µM (inactive)"
>>> obs_value("CC(C)NCC(O)c1ccc(OCc2ccccc2)c(OCc2ccccc2)c1-c1ccccc1 (configuration not stated)")
"2.16 µM (inactive)"
>>> obs_value("CCC(=O)C1(c2ccccc2)CCN(C)CC1")
"> 100 µM (inactive)"
>>> obs_value("C[C@]12C=CC(=O)C=C1CC[C@@H]1[C@@H]2CC[C@@]2(C)[C@H]1CC[C@]2(O)C(N)=O")
"> 100 µM (inactive)"
>>> obs_value("Oc1ccccc1C(Sc1nc2ccccc2s1)Sc1nc2ccccc2s1")
"89.1 µM (inactive)"
>>> obs_value("COc1ccc(C2=NOC(N)(c3ccc(OC)cc3)C2)cc1 (configuration not stated)")
"30.8 µM (inactive)"
>>> obs_value("NC(CSC(c1ccccc1)(c1ccccc1)c1ccccc1)C(=O)O (configuration not stated)")
"0.962 µM (active)"
>>> obs_value("Cc1ccccc1NC(=O)c1c(C)oc2c1C(=O)c1ccccc1C2=O")
"30.9 µM (inactive)"
>>> obs_value("N#Cc1c(-c2ccc(Cl)cc2)cc(-c2ccc(Nc3ccnc4cc(Cl)ccc34)cc2)nc1N")
"> 100 µM (inactive)"
>>> obs_value("CC(=O)Oc1cc2c(cc1OC(C)=O)OCC(c1ccc(C)cc1)C2 (configuration not stated)")
"21.6 µM (inactive)"
>>> obs_value("CCNCC(=O)O[C@]1(CC)C(=O)OCc2c1cc1n(c2=O)Cc2cc3ccccc3nc2-1")
"0.778 µM (active)"
>>> obs_value("CCCCCCCCCCCCCC1=C(O)C(=O)C(CC2=C(O)C(=O)C(CCCCCCCCCCCCC)=C(O)C2=O)=C(O)C1=O")
"> 100 µM (inactive)"
>>> obs_value("N#CC(=C1CCCCC1)c1nc2ccccc2o1")
"32 µM (inactive)"
>>> obs_value("SC1=NNC2(C(S)=N1)c1ccccc1-c1ccccc12")
"> 10 µM (inactive)"
>>> obs_value("CCCCCCCCCCCCCCCCS(=O)(=O)c1ccc(NN)cc1")
"> 10 µM (inactive)"
>>> obs_value("O=C(Cc1cc[n+]([O-])cc1)C(=O)Nc1cc(Cl)c(Cl)cc1Cl")
"> 100 µM (inactive)"
>>> obs_value("O=C1C(Cl)=C(N2CCC[C@@H]2CO)C(=O)c2c(O)ccc(O)c21")
"1.75 µM (inactive)"
>>> obs_value("CCCCCCCCCCCCCC(=O)OCC1OC(OC)C(NC(=O)N(CCCl)N=O)C(O)C1O (configuration not stated)")
"24.4 µM (inactive)"
>>> obs_value("C=C1CC2(CCOc3ccc(Cl)cc32)OC1=O (configuration not stated)")
"13.7 µM (inactive)"
>>> obs_value("CC(C)=CCC/C(C)=C/CC/C(C)=C/CC/C(C)=C/CC/C(C)=C/CC/C(C)=C/CC/C(C)=C/CC/C(C)=C/CC/C(C)=C/CO [SOLANESOL]")
"> 100 µM (inactive)"
>>> obs_value("COCC(=O)OC1CCn2c1nc1c2C(=O)C(C)=C(NC(C)=O)C1=N (configuration not stated)")
"14.2 µM (inactive)"
>>> obs_value("N#CC(C(=O)/C(=N\\NC(N)=O)C(C#N)c1ccccc1)c1ccccc1 (configuration not stated)")
"> 100 µM (inactive)"
>>> obs_value("NC(CSC1c2ccccc2-c2ccccc21)C(=O)O (configuration not stated)")
"> 100 µM (inactive)"
>>> obs_value("O=C(/C=C/c1ccc([N+](=O)[O-])cc1)c1nc2ccccc2[nH]1")
"29.9 µM (inactive)"
>>> obs_value("COc1cc(/C=N/n2c(Cc3ccc(Cl)cc3)n[nH]c2=O)cc(OC)c1OC")
"50 µM (inactive)"
>>> obs_value("C=C1c2nc3ccccc3n2C=C(c2ccc(C)cc2)N1c1ccccc1")
"1.1 µM (active)"
>>> obs_value("c1cc2c3c(c1)c1cc4c(cc1c[n+]3CC2)OCO4 [ANHYDROLYCORINIUM CHLORIDE]")
"0.582 µM (active)"
>>> obs_value("O=C(Nc1nnc(S)[nH]1)C(=O)C1C(=O)Nc2ccccc2[S+]1[O-] (configuration not stated)")
"> 100 µM (inactive)"
>>> obs_value("O=C(Cc1ccccc1)NNc1nc(NNC(=O)c2ccncc2)nc(Nc2ccc([N+](=O)[O-])cc2)n1")
"> 10 µM (inactive)"
>>> obs_value("C=CC(=O)N1C/C(=C\\c2ccc(F)cc2)C(=O)/C(=C/c2ccc(F)cc2)C1")
"0.193 µM (active)"
>>> obs_value("CC1(O)CC23CC(O)C4(O)C(CC(O)C4(C)C)C(C)(O)C2CCC1C3O (configuration not stated)")
"> 100 µM (inactive)"
>>> obs_value("NN/C(=N\\S(=O)(=O)c1cc2ccccc2o1)Nc1ccc(Cl)cc1")
"> 100 µM (inactive)"
>>> obs_value("CCN(CC)C(=S)SC(C(=O)Nc1nnc(-c2ccccc2)o1)c1ccccc1 (configuration not stated)")
"20.2 µM (inactive)"
>>> obs_value("NC1=NCCN1CC(=O)O [CYCLOCREATINE]")
"> 10000 µM (inactive)"
>>> obs_value("COc1cc(-c2oc3c(OC)c(O)c(OC)c(O)c3c(=O)c2OC)ccc1O")
"> 100 µM (inactive)"
>>> obs_value("COc1cc2c(cc1OC)C1Cc3ccccc3CCN1CC2 (configuration not stated)")
"> 100 µM (inactive)"
>>> obs_value("CCOC(=O)C(NC(=O)CC)(Nc1ccccc1F)C(F)(F)F (configuration not stated)")
"> 100 µM (inactive)"
>>> obs_value("Cc1ccccc1/N=N/C(C(=O)c1ccccc1)C(=O)c1ccccc1")
"29.7 µM (inactive)"
>>> obs_value("NS(=O)(=O)OCCCCCCCOS(N)(=O)=O")
"379 µM (inactive)"
